assay explanation: Plasma half life was determined in rats after intravenous administration of the drug.
Format: ADME, organism-based
experimental parameters: rat
Reported half-life is given for each of the following compounds.
# output: numeric value plus its unit

Answered examples (5):
Request: Find the recorded half-life belonging to `CCc1c(O)cccc1C(=O)N[C@@H](Cc1ccccc1)[C@H](O)C(=O)N1CSC(C)(C)[C@H]1C(=O)NC(C)(C)C` and report it.
Result: 1.4 h

Request: Find the recorded half-life belonging to `Cc1c(O)cccc1C(=O)N[C@@H](Cc1ccccc1)[C@H](O)C(=O)N1CSC(C)(C)[C@H]1C(=O)NC(C)(C)C` and report it.
Result: 1.38 h

Request: Find the recorded half-life belonging to `Cc1ccccc1CNC(=O)[C@H]1N(C(=O)[C@@H](O)[C@H](Cc2ccccc2)NC(=O)c2cccc(O)c2C)CSC1(C)C` and report it.
Result: 1.55 h

Request: Find the recorded half-life belonging to `CCc1c(O)cccc1C(=O)N[C@@H](Cc1ccccc1)[C@H](O)C(=O)N1CSC[C@H]1C(=O)NC(C)(C)C` and report it.
Result: 1.23 h

Request: Find the recorded half-life belonging to `CCc1c(O)cccc1C(=O)N[C@@H](Cc1ccccc1)[C@H](O)C(=O)N1CSC(C)(C)[C@H]1C(=O)NCc1ccccc1C` and report it.
Result: 2.1 h

Continuing:
Request: Find the recorded half-life belonging to `Cc1ccccc1CNC(=O)[C@@H]1CSCN1C(=O)[C@@H](O)[C@H](Cc1ccccc1)NC(=O)c1cccc(O)c1C` and report it.
Result: 0.683 h

Request: Find the recorded half-life belonging to `Cc1c(O)cccc1C(=O)N[C@@H](Cc1ccccc1)[C@H](O)C(=O)N1CSC[C@H]1C(=O)NC(C)(C)C` and report it.
Result: 0.983 h
